tgt: APOL1 G1 (Homo sapiens, UniProt O14791, I384M/S342G)
Sequence (O14791 28-398 S342G/I384M): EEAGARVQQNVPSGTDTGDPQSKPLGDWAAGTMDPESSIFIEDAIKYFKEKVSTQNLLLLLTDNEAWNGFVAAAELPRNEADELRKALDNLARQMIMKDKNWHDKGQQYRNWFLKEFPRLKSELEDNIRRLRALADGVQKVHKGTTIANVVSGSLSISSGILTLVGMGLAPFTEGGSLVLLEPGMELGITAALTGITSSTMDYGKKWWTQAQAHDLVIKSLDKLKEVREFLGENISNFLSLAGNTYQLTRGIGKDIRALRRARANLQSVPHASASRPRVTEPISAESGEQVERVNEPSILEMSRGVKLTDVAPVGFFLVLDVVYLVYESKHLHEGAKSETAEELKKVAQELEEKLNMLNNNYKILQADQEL
test: MultiTox-Fluor Multiplex Cytotoxicity Assay, tet-inducible APOL1 G1 T-REx-HEK293 cells
Format: cell-based
Parameters: expressed in transfected cells; host or cells: T-REx HEK293, clone G1 DC3.25 (pAAVS1-Puro-APOL1 G1)
experimental context: HEK293, Multi-Tox Assay; APOL1 variant (G0/G1/G2) of the HEK293 cells not given; read-out: Multi-Tox Assay IC90
IC90 overview

| molecule | IC90 |
| --- | --- |
| C[C@H]1C[C@@]2(C[C@@H](c3cn(Cc4ccc(C#N)nc4)nn3)N1)OCC(F)(F)c1cc(Cl)sc12 | 50 to 500 nM |
| COc1cc(F)cc(Cn2cc([C@@H]3C[C@]4(C[C@H](C)N3)OCC(F)(F)c3cc(Cl)sc34)nn2)c1 | 50 to 500 nM |
| COCC1(Cn2cc([C@@H]3C[C@]4(C[C@H](C)N3)OC[C@@H](O)c3cc(Cl)sc34)nn2)CC1 | > 500 nM |
| COc1cccc(C2CC3(CC(C)N2)OCCc2cc(Cl)sc23)n1 (mixture of isomers) | 50 to 500 nM |
| C[C@H]1C[C@@]2(C[C@@H](c3cn(Cc4cnccn4)nn3)N1)OC[C@@H](O)c1cc(Cl)sc12 | 50 to 500 nM |
| Cc1cc(O)ncc1[C@@H]1C[C@]2(C[C@H](C)N1)OCCc1cc(Cl)sc12 (racemic) | 50 to 500 nM |
| Cc1ccc(Cn2cc([C@@H]3C[C@]4(C[C@H](C)N3)OCC(F)(F)c3cc(Cl)sc34)nn2)nc1 | > 500 nM |
| C[C@H]1C[C@@]2(C[C@@H](c3cn(Cc4ccc(S(C)(=O)=O)cc4)nn3)N1)OC[C@@H](O)c1cc(Cl)sc12 | 50 to 500 nM |
| C[C@H]1C[C@@]2(C[C@@H](CC3CCOCC3)N1)OCCc1cc(Cl)sc12 | > 500 nM |
| COCC1CC2(CC(c3cn(C)nn3)N1)OCCc1cc(Cl)sc12 (centres unmarked) | 50 to 500 nM |
| C[C@H]1C[C@@]2(C[C@@H](c3cn(CC4CCOC4)nn3)N1)OCC(F)(F)c1cc(Cl)sc12 (some centres unmarked) | 50 to 500 nM |
| C[C@H]1C[C@@]2(C[C@@H](c3cocn3)N1)OCCc1cc(Cl)sc12 (racemic) | 50 to 500 nM |
| Cc1ccnn1CCn1cc([C@@H]2C[C@]3(C[C@H](C)N2)OC[C@@H](O)c2cc(Cl)sc23)nn1 | 50 to 500 nM |
| COc1ccc(Cn2cc([C@@H]3C[C@]4(C[C@H](C)N3)OCC(F)(F)c3cc(Cl)sc34)nn2)cn1 | 50 to 500 nM |
